test system: SLK; settings: concentration: 1 μM, replicates: in singlicate; n = 1;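 further: KINOMEscan kinase panel screen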
Quick reference for %Inh among some molecules
Express the result in % but write the number alone.

Completed entries (count: 4):
Input smiles	%Inh (%)
COc1ccc(-c2cc3c(C)nc(N)nc3n([C@H]3CC[C@H](O)CC3)c2=O)cn1	0
COc1cc2ncn(-c3cc(OCc4ccncc4Br)c(C(N)=O)s3)c2cc1OC	95.9
O=C(NCCNc1ccnc(Nc2ccc(F)cc2)n1)Nc1ccc2c(c1)OCO2	0
Nc1ncnc2c1ncn2-c1cccc2ccccc12	0

# next molecule below
What the record says about Cn1c(=O)c(F)c(Nc2ccc(I)cc2F)c2c(=O)n(OC[C@H](O)CO)cnc21 : %Inh is 0
